System: MCF7
ASSAY_METHOD_TEXT: NCI tumour cell line growth inhibition, 48 h
The source made the active and inactive calls. No stated cut-off is given here; in the data, active = GI50 up to about 1.1 µM and inactive = higher.
// values below are reported GI50

Below, each entry is followed by its recorded GI50 result.
| COMPOUND | ENDPOINT_NAME | RESULT |
| --- | --- | --- |
| O=C1N/N=C\Nc2ccc(cc2)S(=O)(=O)c2ccc(cc2)/N=C\NNC1=O | GI50 | > 100 µM (inactive) |
| CC1CCC(C(C)C)C(OC(=O)NCn2cc(-c3ccccc3)nn2)C1 (configuration not stated) | GI50 | > 100 µM (inactive) |
| CSc1ccc2c(c1)N(CCCN(C)C)c1ccccc1S2 | GI50 | 11.9 µM (inactive) |
| COc1c(N2CCCCC2)c2c(=O)c3ccccc3oc2c2c3ccccc3n(C)c12 | GI50 | 29.7 µM (inactive) |
| CC(C)(C)OC(=O)N[C@H]1CC2(C=C(Cl)C(=O)C(Cl)=C2)OC1=O | GI50 | 6.79 µM (inactive) |

Fill blank: measured GI50 of the compound O=C1NC(=O)C(C(CC(=O)c2ccc([N+](=O)[O-])cc2)c2ccccc2)C(=O)N1 (configuration not stated) is ____.
13.5 µM (inactive)

Fill blank: measured GI50 of the compound COc1cccc(C2c3cc4c(cc3OC(C)(N3CCCC3)C2C)OCO4)c1O (configuration not stated) is ____.
3.47 µM (inactive)

Fill blank: measured GI50 of the compound Nc1nc2ccc3ccccc3c2[nH]1 is ____.
> 10 µM (inactive)

Fill blank: measured GI50 of the compound COc1cccc(OCC(=N/NC(=O)c2ccncc2)/N=C/c2cccnc2)c1 is ____.
> 100 µM (inactive)

Fill blank: measured GI50 of the compound c1ccc2c(c1)c1c(n2CCOCCN2CCOCC2)CCCC1 is ____.
38.8 µM (inactive)

Fill blank: measured GI50 of the compound COc1ncnc2c1cnn2Cc1cn(COCC(O)CO)nn1 (configuration not stated) is ____.
> 100 µM (inactive)

Fill blank: measured GI50 of the compound CC1(C)C(=O)N(O)C(C)(C)N1N=O is ____.
> 10 µM (inactive)

Fill blank: measured GI50 of the compound N=C1N(S(=O)(=O)c2ccccc2)[C@@H](Cc2ccccc2)[C@H](c2ccccc2)C1(c1ccccc1)c1ccccc1 is ____.
> 100 µM (inactive)

Fill blank: measured GI50 of the compound COC(=O)[C@@H]1[C@@H](c2cccc(Cl)c2)[C@H](C(=O)OC)C2(C[C@@]1(C)O)NCCS2 (some centres not stated) is ____.
56.1 µM (inactive)

Fill blank: measured GI50 of the compound Cc1c(C(=O)c2ccc(N)c3ccccc23)c2ccccc2n1CCN1CCOCC1 is ____.
21.2 µM (inactive)

Fill blank: measured GI50 of the compound CN1c2ccc(O)c(O)c2-c2cc(O)cc3c2C1CCC3 (configuration not stated) is ____.
14.2 µM (inactive)

Fill blank: measured GI50 of the compound O=S(=O)(O)c1ccc2cc(/N=N/c3c(O)ccc4ccccc34)ccc2c1 is ____.
> 100 µM (inactive)

====

// values below are reported GI50
Tested on: TK-10
ASSAY_METHOD_TEXT: NCI tumour cell line growth inhibition, 48 h
Calls of active or inactive are those of the source. Cut-off read from the data, not from the text of the source: active = GI50 up to about 1.1 µM and inactive = higher.

Below, each entry is followed by its recorded GI50 result.
| MOLECULE | GI50 |
| --- | --- |
| O=C1C2Nc3ccccc3SC2C(=O)N1c1cccc([N+](=O)[O-])c1 (centres undefined) | 35.4 µM (inactive) |
| C[N+](C)(C)CCN[N+]1(C)CCCc2ccccc21 (centres undefined) | > 100 µM (inactive) |
| COC(=O)C(CC(=O)Nc1ccc(Cl)c(Cl)c1)C(=O)C(=O)Nc1ccc(Cl)c(Cl)c1 (centres undefined) | > 100 µM (inactive) |
| C=C1[C@H](OCC(C)C)[C@@H](OCC(C)C)[C@@H](O)C(C)(C)/C=C/[C@H](C)C(=O)[C@@]2(O)C[C@H](C)[C@H](O)[C@@H]2[C@H]1OCC(C)C | 5.78 µM (inactive) |
| CC(C)(C)OC(=O)NC(Cc1ccccc1)C(=O)OCN1C(=O)C2C3C=CC(C2C1=O)C1C2C(=O)N(COC(=O)C(Cc4ccccc4)NC(=O)OC(C)(C)C)C(=O)C2C31 (centres undefined) | 31 µM (inactive) |
| Cc1cc(O)ccc1C1(c2ccc(F)cc2)OC(=O)c2ccccc21 (centres undefined) | 4.01 µM (inactive) |
| O=CNNC(=O)Nc1cccc2ccccc12 | > 100 µM (inactive) |
| O=C(CCCn1cnc([N+](=O)[O-])n1)NCCn1ccnc1[N+](=O)[O-] | > 100 µM (inactive) |

Below: the item to evaluate.
Fill blank: measured GI50 of the molecule NC(=O)N/N=C1\CCCCc2ccccc21 is ____.
> 10 µM (inactive)

====

// values below are reported GI50
Test system: HCT-116
ASSAY_METHOD_TEXT: NCI tumour cell line growth inhibition, 48 h
Active and inactive are the calls of the source. Cut-off read from the data, not from the text of the source: active = GI50 up to about 1.1 µM and inactive = higher.

| COMPOUND | RESULT |
| --- | --- |
| O=S(=O)(O)c1cc(/N=N/c2cc(S(=O)(=O)O)c3ccccc3c2O)ccc1/C=C/c1ccc(/N=N/c2cc(S(=O)(=O)O)c3ccccc3c2O)cc1S(=O)(=O)O | > 213 µM (inactive) |
| CCN(CC)CCn1c2cc3c(cc2c(=O)c2cccnc21)OCO3 | 4.79 µM (inactive) |
| c1ccc2c(c1)CC1c3[nH]c4ccccc4c3CCN21 (stereo unspecified) | > 10 µM (inactive) |

Fill blank: measured GI50 of the compound CCNC(=S)NNC(=O)c1nsc2ccccc12 is ____.
96.8 µM (inactive)

Fill blank: measured GI50 of the compound CC[C@@]1(C)CCC2c3ccc(O)cc3CC[C@H]2C1C (stereo partly specified) is ____.
17.7 µM (inactive)

Fill blank: measured GI50 of the compound Cc1ccccc1-n1c(=O)sc2c(=O)n(-c3ccccc3)c(=S)[nH]c21 is ____.
> 100 µM (inactive)

Fill blank: measured GI50 of the compound Oc1ccc(Cl)cc1C1=NC(/N=C\c2ccccc2)=NC(c2ccccc2)C1 (stereo unspecified) is ____.
5.94 µM (inactive)

====

Test system: NCI-H522
ASSAY_METHOD_TEXT: NCI tumour cell line growth inhibition, 48 h
Activity calls are given as the source filed them. No stated cut-off is given here; in the data, active = GI50 up to about 1.1 µM and inactive = higher.
ENDPOINT_NAME: GI50

Below, each entry is followed by its recorded GI50 result.
| COMPOUND | GI50 |
| --- | --- |
| C=C(C)CN(CC#N)CC(=C)C | > 100 µM (inactive) |
| CCOP(=O)(/C=C/n1cnc2c(=O)n(C(C)=O)c(N)nc21)OCC | 67.9 µM (inactive) |
| CCC1c2[nH]c3ccccc3c2C[C@H]2C(=O)NC(Cc3ccccc3)C(=O)N12 (some centres not stated) | 22.9 µM (inactive) |
| O=S(=O)(O)Oc1cc2c(c(OS(=O)(=O)O)c1)C[C@H](OS(=O)(=O)O)[C@@H](c1ccc(OS(=O)(=O)O)c(OS(=O)(=O)O)c1)O2 | > 100 µM (inactive) |
| COC(=O)C(=O)C(C(=O)C(=O)Nc1ccc(F)cc1)c1nc2ccc([N+](=O)[O-])cc2nc1O (configuration not stated) | > 100 µM (inactive) |

Fill blank: measured GI50 of the compound O=C(NOC(=O)c1ccc([N+](=O)[O-])cc1)c1ccc(Cl)cc1 is ____.
27 µM (inactive)

Fill blank: measured GI50 of the compound O=S(=O)(O)c1cc(/N=N/c2cc(S(=O)(=O)O)c3ccccc3c2O)ccc1/C=C/c1ccc(/N=N/c2cc(S(=O)(=O)O)c3ccccc3c2O)cc1S(=O)(=O)O is ____.
> 492 µM (inactive)

====

// values below are reported GI50
Test system: LOX IMVI
ASSAY_METHOD_TEXT: NCI tumour cell line growth inhibition, 48 h
Calls of active or inactive are those of the source. Rule as the data show it: active = GI50 up to about 1.1 µM and inactive = higher.

| MOLECULE | ENDPOINT_NAME | RESULT |
| --- | --- | --- |
| COc1cc(/C=N/N=C(\N)NO)cc(Cl)c1O | GI50 | 31 µM (inactive) |
| CCOC(=O)N1c2ccccc2N(C(=O)OCC)C1CC(=O)/C=C/c1ccccc1 | GI50 | 2.45 µM (inactive) |

Fill blank: measured GI50 of the molecule NC(=O)C(NC=O)c1ccccc1 (configuration not stated) is ____.
> 100 µM (inactive)

Fill blank: measured GI50 of the molecule O=C(O)/C=C/c1ccc(O)c(O)c1 is ____.
> 100 µM (inactive)

Fill blank: measured GI50 of the molecule O=C(Nc1ccc([N+](=O)[O-])cc1)C(=O)C(C(=O)c1ccccc1F)C1OC(=O)c2ccccc21 (configuration not stated) is ____.
17.7 µM (inactive)
